experiment: basal S. cerevisiae growth modulation, no modifier, primary screen, OD600, strain BY4716, 24 h, basal condition (AID 1173); conditions: OD600, 24 h, higher = more signal, called active from +8 up or from −8 down
OBSERVATION_TYPE: z-score
Respond numerically, and do not add a unit to the figure.

Query: Return reported z-score; argument: COC(=O)[C@@]1(Cc2ccc(OC)cc2)[C@@H]2[C@@H](CC(=O)[C@H]2CC(=O)C(=O)N(C)C)CN1C(=O)c1ccccc1
Result: 1.05

Query: Return reported z-score; argument: Cc1ccc(S[C@]2(C(=O)NCc3ccccc3)CC(=O)N(Cc3ccccc3C(F)(F)F)[C@@H]2c2ccc(CO)cc2I)cc1
Result: -5.1

Query: Return reported z-score; argument: COc1cc(Cc2cc3c(c(CCc4ccccc4)n2)[Si](C(C)C)(C(C)C)O[C@H]3c2ccccc2)cc(OC)c1OC
Result: -17.2

Query: Return reported z-score; argument: COCCOC(=O)N1C(=O)[C@@]2(c3ccccc31)[C@H](C(=O)Nc1nc3ccccc3s1)[C@H]1C(=O)O[C@H](c3ccccc3)[C@H](c3ccccc3)N1[C@@H]2c1ccccc1OCCO
Result: 2.38

Query: Return reported z-score; argument: O=C1c2ccccc2[C@](Cc2ccccc2I)(C(=O)NCCN2CCOCC2)[C@H](c2ccc(CO)cc2)N1Cc1ccccc1C(F)(F)F
Result: -1.14

Query: Return reported z-score; argument: COCCCNC(=O)[C@@]1(Cc2ccccc2I)c2ccccc2C(=O)N(Cc2ccccc2C(F)(F)F)[C@H]1c1ccc(CO)cc1
Result: -0.088

Query: Return reported z-score; argument: COc1cc(Cc2cc3c(c(-c4ccccc4)n2)[Si](C(C)C)(C(C)C)OC3)cc(OC)c1OC
Result: 0.299

Query: Return reported z-score; argument: C=CC[C@]1(C(=O)NCCN2CCOCC2)N=C(c2ccc(OCCCO)cc2)O[C@H]1c1ccccc1
Result: -0.916

Query: Return reported z-score; argument: CC(C)C[C@@H]1NC(=O)[C@H]2C[C@@H](C(=O)O)[C@@H](c3cccc(OCCO)c3)N2C1=O
Result: -0.25

Query: Return reported z-score; argument: COC(=O)[C@@]1(Cc2ccccc2)[C@H]2c3cc(C(=O)N(C)C)n(Cc4nc5ccccc5[nH]4)c3C[C@H]2CN1C(=O)c1ccccc1
Result: -0.541

Query: Return reported z-score; argument: CCOC(=O)C[C@H]1[C@H](OC(=O)c2ccccc2-c2ccccc2)[C@@H](NC(=O)CC(C)C)c2cc(OCCCO)ccc2N1C(=O)c1ccccc1
Result: -1.04

Query: Return reported z-score; argument: [N-]=[N+]=Nc1ccccc1C[C@@]1(C(=O)NCC(O)CO)N=C(c2ccc(OCCCO)cc2)O[C@@H]1c1ccccc1N=[N+]=[N-] (stereo not given in full)
Result: -1.75

Query: Return reported z-score; argument: CN1C(=O)C2C=CC(C(O)c3cccs3)N(N(c3ccccc3)c3ccccc3)C2C1=O (stereo not given)
Result: 0.754

Query: Return reported z-score; argument: COC(=O)[C@@]1(Cc2ccc(OC)cc2)[C@H]2c3cc(C(=O)N(C)C)n(Cc4c(CO)[nH]cc(C)c4=O)c3C[C@H]2CN1C(=O)c1ccccc1
Result: -0.0117

Query: Return reported z-score; argument: C=CC[C@H](OC(=O)Nc1ccc(SC)cc1)c1ccc(O)c(F)c1
Result: -15.5

The measured values listed here are drawn from PubChem BioAssay.
